- Test system: mgc4171
- EXPERIMENT_DESCRIPTION: Real-time quantitative PCR of PLsis marker gene expression
- Format: cell-based, human
- SETTINGS: HepG2 cells, 24 hr exposure, relative value, control group = 1.0, GAPDH internal standard, n=3
PROPERTY_LABEL: expression variation rate mgc4171

- MOLECULE: "CSc1ccc2c(c1)N(CCC1CCCCN1C)c1ccccc1S2 (stereo not shown) [thioridazine]"
  TARGET: "mgc4171"
  expression variation rate mgc4171: 1.32
- MOLECULE: "Cc1cc(NS(=O)(=O)c2ccc(N)cc2)no1 [sulfamethoxazole]"
  TARGET: "mgc4171"
  expression variation rate mgc4171: 0.78
- MOLECULE: "O=C(CCCN1CCC(O)(c2ccc(Cl)cc2)CC1)c1ccc(F)cc1 [haloperidol]"
  TARGET: "mgc4171"
  expression variation rate mgc4171: 1.24
- MOLECULE: "CCN(CC)CCNC(=O)c1ccc(N)cc1 [procainamide]"
  TARGET: "mgc4171"
  expression variation rate mgc4171: 1.08
- MOLECULE: "CN1CCN(C(c2ccccc2)c2ccc(Cl)cc2)CC1 (stereo not shown) [chlorcyclizine]"
  TARGET: "mgc4171"
  expression variation rate mgc4171: 2.43

a. CNS(=O)(=O)Cc1ccc2[nH]cc(CCN(C)C)c2c1 [sumatriptan]
b. CN[C@H]1CC[C@@H](c2ccc(Cl)c(Cl)c2)c2ccccc21 [sertraline]
Req: Endpoint returns the identifier whose expression variation rate mgc4171 is numerically larger, either a or b . Output the label that corresponds to your choice.
Resp: b
(b: 1.94, a: 0.99)

a. CN(C)C/C=C(/c1ccc(Br)cc1)c1cccnc1 [zimelidine]
b. CN(C)CCCN1c2ccccc2CCc2ccccc21 [imipramine]
Req: Endpoint returns the identifier whose expression variation rate mgc4171 is numerically larger, either a or b . Output the label that corresponds to your choice.
Resp: b

P. CN(C)CCC=C1c2ccccc2CCc2ccccc21 [amitriptyline]
Q. N=C(N)c1ccc(OCCCCCOc2ccc(C(=N)N)cc2)cc1 [pentamidine]
Req: Endpoint returns the identifier whose expression variation rate mgc4171 is numerically larger, either P or Q . Output the label that corresponds to your choice.
Resp: P

A. CC(=O)N1CCN(c2ccc(OCC3COC(Cn4ccnc4)(c4ccc(Cl)cc4Cl)O3)cc2)CC1 (stereo not shown) [ketoconazole]
B. CC(=O)Nc1ccc(O)cc1 [acetaminophen]
Req: Please indicate which entry, A or B , has the lower recorded expression variation rate mgc4171 value. Output the label that corresponds to your choice.
Resp: B
(B: 0.75, A: 1.53)
